Assay info: Half life in mouse liver microsomes in presence of NADPH
Format: ADME, microsome
Parameter: half-life. Scope: all listed entries.
Lab book: enter the figure in min, no units written.

Recorded results for 5 compounds are shown here.
INSERT INTO assay_data (input_smiles, measurement) VALUES
  ('O=C(CS)NCCCCNc1c(Cl)cc(Cl)c2cccnc12', 91.2),
  ('O=C(CSSCC(=O)NCCCCCn1ccc2cc(Cl)c(Cl)cc21)NCCCCCn1ccc2cc(Cl)c(Cl)cc21', 24.8),
  ('O=C(CSSCC(=O)NCCCCNc1c(Cl)cc(Cl)c2cccnc12)NCCCCNc1c(Cl)cc(Cl)c2cccnc12', 25.9),
  ('CC(C)c1cn(CCCCCCNC(=O)CS)c2cc(Cl)c(Cl)cc12', 70),
  ('O=C(CS)NCCCCCn1ccc2cc(Cl)c(Cl)cc21', 41.3);

Recorded half-life of `O=C(CS)NCCCCCNc1c(Cl)cc(Cl)c2cccnc12` , please.
51

====

Parameter: remaining at 1 h. Scope: all listed entries.
Assay info: Metabolic stability in mouse liver microsomes assessed as parent compound remaining at 60 mins in presence of NADPH
Assay type: ADME, microsome
Assay context: read-out: Stability
Lab book: enter the figure in %, no units written.

INSERT INTO assay_data (input_smiles, observation_type, unit_name, measurement) VALUES
  ('CC(C)c1cn(CCCCCCNC(=O)CS)c2cc(Cl)c(Cl)cc12', 'remaining at 1 h', '%', 44.3),
  ('O=C(CS)NCCCCCn1ccc2cc(Cl)c(Cl)cc21', 'remaining at 1 h', '%', 29.5);

Recorded remaining at 1 h of `O=C(CS)NCCCCCNc1c(Cl)cc(Cl)c2cccnc12` , please.
39.6

Recorded remaining at 1 h of `O=C(CSSCC(=O)NCCCCNc1c(Cl)cc(Cl)c2cccnc12)NCCCCNc1c(Cl)cc(Cl)c2cccnc12` , please.
18.2

Recorded remaining at 1 h of `O=C(CS)NCCCCNc1c(Cl)cc(Cl)c2cccnc12` , please.
61.7

Recorded remaining at 1 h of `O=C(CSSCC(=O)NCCCCCn1ccc2cc(Cl)c(Cl)cc21)NCCCCCn1ccc2cc(Cl)c(Cl)cc21` , please.
18.2

====

Assay info: Metabolic stability in human liver microsomes assessed as parent compound remaining at 60 mins in presence of NADPH
Format: ADME, microsome
Assay context: read-out: Stability
Observation type: remaining at 1 h (%)
Lab book: enter the figure in %, no units written.

Recorded results for 5 molecules are shown here.
INSERT INTO measurements (input_smiles, measurement) VALUES
  ('O=C(CSSCC(=O)NCCCCNc1c(Cl)cc(Cl)c2cccnc12)NCCCCNc1c(Cl)cc(Cl)c2cccnc12', 8.5),
  ('O=C(CS)NCCCCNc1c(Cl)cc(Cl)c2cccnc12', 22.3),
  ('O=C(CS)NCCCCCNc1c(Cl)cc(Cl)c2cccnc12', 32.1),
  ('O=C(CS)NCCCCCn1ccc2cc(Cl)c(Cl)cc21', 25.3),
  ('CC(C)c1cn(CCCCCCNC(=O)CS)c2cc(Cl)c(Cl)cc12', 33.3);

Recorded remaining at 1 h of `O=C(CSSCC(=O)NCCCCCn1ccc2cc(Cl)c(Cl)cc21)NCCCCCn1ccc2cc(Cl)c(Cl)cc21` , please.
40.5
